Test: pKa by alkali titration with automatic potentiometric titrator
Type: physicochemical
Conditions: tetrahydrofuran/water 6/4 (v/v) mixed solvent; mixed solvent THF/H2O=6/4 (volume ratio), 25° C.; Table 1; read-out: pKa
Hi there, I'd appreciate the recorded pKa for every entry that follows.
Give bare numbers.

                             compound  recorded_value
0  O=C(O)CN(CC(=O)O)Cc1ccccc1 [(0-2)]             3.2

Fill in pKa for each of the 2 compounds listed.
1. CCC(Oc1ccc(C(C)(C)CC)cc1C(C)(C)CC)C(=O)Nc1cccc(C(=O)O)c1 (stereo not drawn) [(0-3)]
2. O=C1NC(=O)N(Cc2ccccc2)C(=O)C1c1ccccc1 (stereo not drawn) [Comparative Compound (0-1)]

1. 6.6
2. 3.7
